# Assay protocol: qHTS drug screen for cell cycle checkpoint inhibitors in PARPi-resistant BRCA-mutant ovarian cancer cell lines. (AID 1963452)
# Study conditions: PEO1/OlaR viability, CellTiter-Glo luminescence, 96 h; stronger effect = lower value
# Excerpt: Women's Malignancies Branch, Center for Cancer Research (CCR), National Cancer Institute (NCI), National Institutes of Health (NIH), Bethesda, MD Poly (ADP-ribose) polymerase inhibitors (PARPis) have changed the treatment paradigm in breast cancer gene (BRCA) - mutant high-grade serous ovarian carcinoma (HGSC). […] 6; Detection; Luminescence, PHERAstar (BMG Labtech) plate reader. […] 6. Luminescence readings were taken using PHERAstar (BMG Labtech). […]
Property name: Z-AUC
Form field (numeric): enter value without unit.

Form: molecule = `Cc1[nH]c2ccc(F)cc2c1-c1nc2c3cccnc3c3ncccc3c2[nH]1` ; Z-AUC = -1.49

Form: molecule = `Cc1cc(N2CCOCC2)ccc1Nc1nc(NC2CCCCC2)c2[nH]cnc2n1` ; Z-AUC = -0.0672

Form: molecule = `N#Cc1ccc(COC[C@H]2O[C@@H](n3c(NCc4ccc(Cl)c(Cl)c4)nc4c(N)ncnc43)[C@H](O)[C@@H]2O)cc1` ; Z-AUC = -0.735

Form: molecule = `COC(=O)Nc1cc(Nc2cc(NC3CC3)c3ncc(C#N)n3n2)c(Cl)c(N2CCN(C)CC2)c1` ; Z-AUC = -1.26

Form: molecule = CCC(CC)C(c1ccc(Nc2nc3ccccc3s2)cc1)n1cncn1 (stereo not drawn) ; Z-AUC = 0.298

Form: molecule = `O=C(O)C1=CO[C@@H](O[C@@H]2O[C@H](CO)[C@@H](O)[C@H](O)[C@H]2O)[C@@H]2C(CO)=CC[C@H]12` ; Z-AUC = 1.4

Form: molecule = `CCn1nc(C2CCN(C(=O)CCO)CC2)nc1-c1cnc(N)c(-c2nnc(C(C)(C)C)o2)n1` ; Z-AUC = 0.285

Form: molecule = `COc1ccc2nc3n[nH]c(C)c3c(NCCOCCO)c2c1` ; Z-AUC = -0.331

Form: molecule = `CCCc1cc(C)[nH]c(=O)c1CNC(=O)c1cc(-c2ccnc(N3CCN(C)CC3)c2)cc2c1cnn2C(C)C` ; Z-AUC = -1.33

Form: molecule = `NC(=O)c1cnc(N[C@@H]2CCCC[C@@H]2N)nc1Nc1cccc(-n2nccn2)c1` ; Z-AUC = 0.565

Form: molecule = `CN1CCN(c2ccc(-c3cccc(CN4CCOCC4)c3)cc2NC(=O)c2c[nH]c(=O)cc2C(F)(F)F)CC1` ; Z-AUC = 0.777

Form: molecule = `CS(=O)(=O)c1ccc(Oc2cc(F)cc(C#N)c2)c2c1[C@H](O)C(F)(F)C2` ; Z-AUC = 1.42

Form: molecule = `CC(/C=C/C(=O)NO)=C\[C@@H](C)C(=O)c1ccc(N(C)C)cc1` ; Z-AUC = -0.778

Form: molecule = `O=C(Nc1ccc2[nH]nc(-c3ccncc3)c2c1)[C@@H]1CCN(CC(=O)N2CCN(c3ccc(-c4ncccn4)cc3)CC2)C1` ; Z-AUC = -0.198

Form: molecule = `COc1cc(N2CCC(N)CC2)ccc1Nc1ncc(Cl)c(-c2c[nH]c3ccccc23)n1` ; Z-AUC = -1.17

Form: molecule = `Cc1[nH]c(/C=C2\C(=O)Nc3ccc(F)cc32)c(C)c1C(=O)NCCN1CCCC1` ; Z-AUC = 0.66

Form: molecule = `Cc1cc(C(=O)Nc2cc(Nc3ccc4c(/C=C/c5ccccn5)n[nH]c4c3)ccc2F)n(C)n1` ; Z-AUC = -1.04

Form: molecule = `O=C(NCC(=O)N1CCCC1)Nc1ccc2cnccc2c1` ; Z-AUC = -0.618

Form: molecule = `Cn1ncc(Cl)c1-c1cc(C(=O)N[C@H](CN)Cc2ccc(F)c(F)c2)sc1Cl` ; Z-AUC = 0.188

Form: molecule = `CN1C(=O)c2sccc2N(C)c2nc(Nc3ccc(S(N)(=O)=O)cc3)ncc21` ; Z-AUC = -1.71

Form: molecule = `O=C1Nc2nc(-c3c(O)cccc3OCC3CC3)cc([C@@H]3CCCNC3)c2CO1` ; Z-AUC = 0.934

Form: molecule = `Cn1ncc2cc(-c3cnc(N)c(Cl)c3N3CCC4(CCNC4=O)CC3)ccc21` ; Z-AUC = -0.513

Form: molecule = `COc1ccccc1C(=O)Nc1cc2c(cc1N1CCCC1)n(C)c(=O)n2C` ; Z-AUC = -1.16

Form: molecule = `Cc1cccc(-c2[nH]ncc2-c2ccc(F)c(-c3cnn(CCO)c3)c2)n1` ; Z-AUC = 0.705

Form: molecule = `Nc1nccc(-c2c(-c3ccc(F)cc3)ncn2C2CCCCC2)n1` ; Z-AUC = -0.78

Form: molecule = `C[C@H](CN(C)C)Oc1nc(Nc2cc3cccc(Cl)c3cn2)cnc1C#N` ; Z-AUC = -0.234

Form: molecule = `Cn1cc(-c2ccc3c(c2)CCN3C(=O)Cc2cccc(C(F)(F)F)c2)c2c(N)ncnc21` ; Z-AUC = -1.17

Form: molecule = `O=c1[nH]c([C@@H]2CCCN2)nc2c1oc1ccc(Cl)cc12` ; Z-AUC = 0.967

Form: molecule = `CCCCOC(=O)NS(=O)(=O)c1sc(CC(C)C)cc1-c1ccc(Cn2ccnc2)cc1` ; Z-AUC = 0.282

Form: molecule = `C=CC(=O)Nc1cccc(Nc2nc(Nc3ccc(NC4CN(CCF)C4)cc3OC)ncc2C(F)(F)F)c1` ; Z-AUC = 0.83

Form: molecule = `CCCc1cc(C)[nH]c(=O)c1CNC(=O)c1cc(-c2ccc(N3CCN(C(C)C)CC3)nc2)cc2c1cnn2C(C)C` ; Z-AUC = 0.233

Form: molecule = `C=CC(=O)N1CCC(Oc2cc3c(Nc4ccc(Cl)c(Cl)c4F)ncnc3cc2OC)CC1` ; Z-AUC = -0.983

Form: molecule = `O=C(Cc1cccc(OC(F)(F)F)c1)Nc1ccc(CCCCc2nnc(NC(=O)Cc3ccccn3)s2)nn1` ; Z-AUC = -1.13

Form: molecule = `Cc1ccc(C(=O)Nc2ccc(CN3CCN(C)CC3)c(C(F)(F)F)c2)cc1C#Cc1cnc2[nH]ncc2c1` ; Z-AUC = -1.39

Form: molecule = `O=C(Nc1ccnc(NC(=O)C2CC2)c1)c1c(Cl)cccc1Cl` ; Z-AUC = -1.13

Form: molecule = `C[C@@H]1CN(CC(=O)N2CC(C)(C)c3ncc(Cc4ccc(F)cc4)cc32)[C@@H](CN2CCOC[C@H]2C)CN1` ; Z-AUC = 1.68

Form: molecule = `CCCOc1ccc(CCc2nc3cc(-c4c(C)noc4C)ccc3n2CCN2CCOCC2)cc1` ; Z-AUC = -0.591

Form: molecule = `C=CC(=O)Nc1ccc2ncnc(Nc3cccc(Br)c3)c2c1` ; Z-AUC = -0.896
